- target-under-test: T1, purified recombinant N-terminally His-tagged rubisco activase (rRCA) (Arabidopsis thaliana, UniProt P10896 59-474)
- T1 construct: Rubisco activase (RCA), A. thaliana, At2g39730; also called recombinant RCA; source: E. coli BL21 (DE3) One Shot, purified (Ni-NTA beads, HisTrap HP column); not shown: His6, N-terminal, kept
- T1 sequence (looked up): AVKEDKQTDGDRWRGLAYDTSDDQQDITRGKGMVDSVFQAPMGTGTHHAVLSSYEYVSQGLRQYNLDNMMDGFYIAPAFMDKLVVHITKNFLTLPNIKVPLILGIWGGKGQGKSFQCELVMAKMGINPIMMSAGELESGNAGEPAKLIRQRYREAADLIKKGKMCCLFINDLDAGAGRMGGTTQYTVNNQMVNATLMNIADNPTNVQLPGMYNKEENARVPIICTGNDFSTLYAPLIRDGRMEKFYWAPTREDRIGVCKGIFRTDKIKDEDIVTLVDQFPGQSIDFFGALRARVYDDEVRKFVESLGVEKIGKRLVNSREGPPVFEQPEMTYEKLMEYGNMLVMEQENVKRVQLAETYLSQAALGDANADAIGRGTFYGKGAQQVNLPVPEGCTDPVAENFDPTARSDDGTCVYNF
- assay-summary: SPR; kinetic analysis: His-tagged rRCA immobilised by amine coupling on a Series S CM5 chip, pAtPNP-A injected at 3.78 μM and consecutive two-fold dilutions (11 injections), flow 100 μL/min, regeneration with glycine pH 2.0; Biacore T100, 20 °C
- experimental-conditions: both partners purified
Bridge positions count the residues as written; N and C are the ends. Ends that are not written are not given here. * marks the point of attachment. Biotin = O=C1N[C@H]2[C@H](CS[C@H]2CCCCC(=O)*)N1

# binder, Kd / µM
data = [
    ("Biotin-YDPPYTRSACYGTQRETLVVGVKNNLWQNGRACG (peptide, UniProt Q9ZV52 33-66, looked up, disulfide 10-33 (inferred), AtPNP-A (plant natriuretic peptide A), A. thaliana, At2g18660, residues 33-66 (active region); Peptides were bought with or without the N-terminal biotin tag; also called biologically active fragment of AtPNP-A; source: synthetic peptide, bought: GenScript (purity at least 95%, HPLC)) [pAtPNP-A, N-terminally biotinylated AtPNP-A(33–66) peptide containing the active region of AtPNP-A]", 0.053),
]
